Origin of measurements: patent US10233426B2

This section presents compounds with their documented intensity of GFP fluorescence relative to control culture (KY02111 only, assigned to one) values.
Tested on: monkey ES cell line transfected with an αMHC promoter-driven GFP gene
Assay: Chemical screening: GFP fluorometry for cardiac differentiation of monkey ES cells
Format: cell-based, cynomolgus monkey
Settings: test compound 1 μM in Early phase (day 0 to day 3); 10 μM KY02111 in late phase; GFP fluorometry day 9
Answer with the value's number alone.

Look over these answered cases.
compound	tested-system	assay-value
Cc1ccc(-n2nc(C(C)(C)C)cc2NC(=O)Nc2ccc(OCCN3CCOCC3)c3ccccc23)cc1 [BIRB796]	monkey ES cell line transfected with an αMHC promoter-driven GFP gene	0.9
COc1ccc(-c2ccc3c(N4CCOCC4)nc(N4C[C@@H](C)O[C@@H](C)C4)nc3n2)cc1CO [K00063794]	monkey ES cell line transfected with an αMHC promoter-driven GFP gene	0.01
CC(=O)O[C@@]12C[C@@H](C)[C@@]3(O)[C@@H](C=C(CO)C[C@]4(O)C(=O)C(C)=C[C@@H]34)[C@@H]1C2(C)C [Prostratin]	monkey ES cell line transfected with an αMHC promoter-driven GFP gene	2.31
Cc1cc(Nc2ncc3c(n2)N(C)C(=O)N(c2cc(NC(=O)c4cccc(C(F)(F)F)c4)ccc2C)C3)n(C)n1 [SC-1]	monkey ES cell line transfected with an αMHC promoter-driven GFP gene	0
COc1cc2ncnc(Nc3cccc(Cl)c3)c2cc1OC [AG1478]	monkey ES cell line transfected with an αMHC promoter-driven GFP gene	0.89

stdin: Entry N#C/C(=C/c1ccc(O)c(O)c1)C(=O)NCc1ccccc1 [AG490] : reported intensity of GFP fluorescence relative to control culture (KY02111 only, assigned to one) = ?
stdout: 0.59

stdin: For CC(C)(O)/C=C/C(=O)[C@](C)(O)[C@H]1[C@H](O)C[C@@]2(C)[C@@H]3CC=C4[C@@H](C=C(O)C(=O)C4(C)C)[C@]3(C)C(=O)C[C@]12C [Cucurbitaonl] , what is its reported intensity of GFP fluorescence relative to control culture (KY02111 only, assigned to one)?
stdout: 0

stdin: Query (compound): CNC(=O)c1ccccc1Sc1ccc2c(/C=C/c3ccccn3)n[nH]c2c1 [Axitinib] ; field requested: intensity of GFP fluorescence relative to control culture (KY02111 only, assigned to one)
stdout: 0.02

stdin: Could you share which intensity of GFP fluorescence relative to control culture (KY02111 only, assigned to one) value was measured for COc1ccc2c(c1)c(C1=C(c3c[nH]c4ccccc34)C(=O)NC1=O)cn2CCCN(C)C [Go6983] ?
stdout: 0.98

====

Test system: monkey ES cell line transfected with an αMHC promoter-driven GFP gene
Assay: Chemical screening: GFP fluorometry for cardiac differentiation of monkey ES cells
Assay type: cell-based, cynomolgus monkey
Conditions: test compound 0.3 μM in Late phase (day 4 to day 7) with 10 μM KY02111; GFP fluorometry day 9
The threshold is 0.9. Values of intensity of GFP fluorescence relative to control culture (KY02111 only, assigned to one) beneath it are tagged Yes; values meeting or exceeding it are tagged No.

stdin: Given the entry COc1ccc2c(c1)c(C1=C(c3c[nH]c4ccccc34)C(=O)NC1=O)cn2CCCN(C)C [Go6983] , would its reported intensity of GFP fluorescence relative to control culture (KY02111 only, assigned to one) be below 0.9?
stdout: No
